- ASSAY METHOD TEXT: chemical genetic growth profiling, strain panel (AID 1159580);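 note: tested at 20 µM; growth read once vehicle control cultures reached saturation at 30 °C; 1 = growth at the plate median or of vehicle wells; lower values mean less growth of the strain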
- CONDITION: S. cerevisiae deletion strains, growth OD, locus YGL227W, strain vid30, stronger effect = lower value
The whole screen tested about 5,500 compounds, of which about 2,000 (36%) were called active. About 18% were inconclusive and are not listed. This is one part of the list.
RESULT TYPE: normalized growth
A bare number is all that is needed in reply.

COMPOUND | RESULT NUMBER
C#CCCCCCCCCCCCc1ccco1 | 0.991
CN1C2CCC1CC(OC(c1ccccc1)c1ccccc1)C2 (stereo not drawn) | 1
C=CCCCCCCCCCCCc1ccco1 | 0.766
C=CC[C@]1(O)CCC2C3CCC4=CC(=O)CCC4=C3C=C[C@@]21C (stereo partly drawn) | 0.995

Prompt: # query: normalized growth of entry O=C(O)c1cc2cc(F)ccc2[nH]1
Completion: 0.989

Prompt: What do we get for C[n+]1c2cc(N)ccc2cc2ccc(N)cc21 ?
Completion: 0.671

Prompt: What do we get for CCCCCCCCCCCCCc1ccco1 ?
Completion: 0.971

Prompt: What do we get for CC#CC1(O)CCC2C3CCC4=CC(=O)CCC4=C3C(c3ccc(N(C)C)cc3)CC21C (stereo not drawn) ?
Completion: 1.01
